Kindly supply the reported IC50 values for the records listed here.
Target: human calcium-sensing receptor (CaSR) (Homo sapiens, UniProt P41180)
Sequence (P41180 20-1078): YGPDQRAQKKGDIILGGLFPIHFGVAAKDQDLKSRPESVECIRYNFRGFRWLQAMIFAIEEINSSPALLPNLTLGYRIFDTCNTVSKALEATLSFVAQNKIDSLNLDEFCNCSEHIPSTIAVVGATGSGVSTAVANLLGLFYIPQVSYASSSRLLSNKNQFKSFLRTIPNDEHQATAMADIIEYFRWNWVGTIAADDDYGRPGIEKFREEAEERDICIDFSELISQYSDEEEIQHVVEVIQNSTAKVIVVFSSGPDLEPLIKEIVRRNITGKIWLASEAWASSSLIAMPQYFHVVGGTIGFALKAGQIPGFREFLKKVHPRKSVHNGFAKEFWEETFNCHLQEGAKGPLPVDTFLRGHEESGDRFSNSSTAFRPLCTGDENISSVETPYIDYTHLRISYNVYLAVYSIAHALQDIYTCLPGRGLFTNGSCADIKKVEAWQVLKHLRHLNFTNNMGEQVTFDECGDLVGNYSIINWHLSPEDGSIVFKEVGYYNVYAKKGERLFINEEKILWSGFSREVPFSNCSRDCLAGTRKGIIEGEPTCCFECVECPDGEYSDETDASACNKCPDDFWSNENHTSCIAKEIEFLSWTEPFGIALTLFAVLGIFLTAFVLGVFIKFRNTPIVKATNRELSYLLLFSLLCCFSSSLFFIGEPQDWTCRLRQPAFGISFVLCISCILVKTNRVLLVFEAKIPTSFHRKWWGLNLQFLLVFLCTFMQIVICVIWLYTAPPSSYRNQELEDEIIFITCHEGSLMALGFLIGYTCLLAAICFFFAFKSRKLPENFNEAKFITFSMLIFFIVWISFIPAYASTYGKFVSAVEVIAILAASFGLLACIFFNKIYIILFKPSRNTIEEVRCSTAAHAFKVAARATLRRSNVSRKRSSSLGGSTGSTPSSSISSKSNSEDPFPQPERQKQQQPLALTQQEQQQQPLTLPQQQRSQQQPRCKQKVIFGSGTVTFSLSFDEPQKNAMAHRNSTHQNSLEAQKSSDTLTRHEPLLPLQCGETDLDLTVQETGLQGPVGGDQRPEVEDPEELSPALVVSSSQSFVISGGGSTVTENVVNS
Assay: Inhibitory activity on calcium-sensing receptor (CaSR), intracellular calcium increase as indicator (FLIPR, CHO/hCaSR)
Conditions: CHO cells stably expressing human CaSR; inhibition of intracellular Ca increase induced by extracellular CaCl2

IN: Item `Cc1cc(CCC(=O)O)c([C@@H](C)OC[C@H](O)CN2CCC[C@H]2Cc2ccc(C)c(Cl)c2)cc1F` : provide IC50
OUT: ≤ 3.25 µM

IN: Item `CCc1cc(C[C@@H]2CCCN2C[C@@H](O)CO[C@H](C)c2cc(F)c(C)cc2CCC(=O)O)ccc1Cl` : provide IC50
OUT: ≤ 3.16 µM

IN: Item `Cc1cc(CCC(=O)O)c([C@@H](C)OC[C@H](O)CN2CCC[C@H]2Cc2ccc(Cl)c(Cl)c2)cc1F` : provide IC50
OUT: ≤ 3.12 µM

IN: Item `C[C@@H](OC[C@H](O)CN1CCC[C@H]1Cc1ccc(Cl)c(Cl)c1)c1cc(F)c(F)cc1CCC(=O)O` : provide IC50
OUT: ≤ 3.1 µM
